subjectOfTest: serotonin 1A receptors ([^3H]8-OH-DPAT binding, hippocampus membrane preparation) (Rattus norvegicus, UniProt P19327)
Construct: 146 μl of the hippocampus membrane preparation (80 μg/tube in terms of protein); from tissue; host or cells: rat hippocampus membrane preparation
Sequence (P19327 1-422): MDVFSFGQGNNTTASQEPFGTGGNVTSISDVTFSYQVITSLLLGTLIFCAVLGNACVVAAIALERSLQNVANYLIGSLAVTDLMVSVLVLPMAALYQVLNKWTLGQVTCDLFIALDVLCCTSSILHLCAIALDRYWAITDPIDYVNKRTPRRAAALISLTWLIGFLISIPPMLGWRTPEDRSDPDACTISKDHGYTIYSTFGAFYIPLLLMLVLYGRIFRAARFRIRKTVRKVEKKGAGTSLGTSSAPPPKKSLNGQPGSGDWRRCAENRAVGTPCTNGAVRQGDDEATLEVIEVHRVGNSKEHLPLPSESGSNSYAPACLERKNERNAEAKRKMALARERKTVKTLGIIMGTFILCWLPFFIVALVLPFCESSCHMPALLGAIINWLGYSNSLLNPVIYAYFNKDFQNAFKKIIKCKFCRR
assayProtocol: [^3H]8-OH-DPAT binding test (Test Example 2)
conditions: [^3H]8-OH-DPAT 2 nM, test concentration not given
Measured Rate of inhibition of [^3H]8-OH-DPAT binding (%), listed per entry for reference.
observationType: Rate of inhibition of [^3H]8-OH-DPAT binding (%)

> print(dat)
                                   compound  testresult
1  COc1ccc(Br)c(CC2CCN(CC[C@H]3CC[C@H](NC(=O)C(F)(F)F)CC3)CC2)c1.Cl          90
2  COc1ccc(Br)c(CC2CCN(CCC3CCNCC3)CC2)c1.Cl.Cl          47
3  CC(C)Oc1ccc(Br)c(CC2CCN(CC3CCc4ccccc4N3)CC2)c1.Cl.Cl (centres unmarked)          60
4  COc1ccc(Br)c(CC2CCN(CC[C@H]3CC[C@H](NS(=O)(=O)N(C)C)CC3)CC2)c1.Cl          95
5  COc1ccc(N2CC(CN3CCC(Cc4cc(OC)ccc4Br)CC3)OC2=O)cc1.Cl (centres unmarked)          97
6  CCN[C@H]1CC[C@@H](CCN2CCC(Cc3cc(OC(C)C)ccc3Br)CC2)CC1.Cl.Cl          86
7  CCN[C@H]1CC[C@H](CCN2CCC(Cc3cc(OC)ccc3Br)CC2)CC1.Cl.Cl          96
8  CCN(CCOC)[C@H]1CC[C@H](CCN2CCC(Cc3cc(OC)ccc3Br)CC2)CC1.Cl.Cl          92

* * *

This section presents compounds with their documented 5-HT1A receptor stimulating activity (%) values.
subjectOfTest: human 5-HT1A receptor (Homo sapiens, UniProt P08908)
Construct: expressed in transfected cells; host or cells: CHO cells (human 5-HT1A/CHO), membrane preparation
Sequence (P08908 whole entry): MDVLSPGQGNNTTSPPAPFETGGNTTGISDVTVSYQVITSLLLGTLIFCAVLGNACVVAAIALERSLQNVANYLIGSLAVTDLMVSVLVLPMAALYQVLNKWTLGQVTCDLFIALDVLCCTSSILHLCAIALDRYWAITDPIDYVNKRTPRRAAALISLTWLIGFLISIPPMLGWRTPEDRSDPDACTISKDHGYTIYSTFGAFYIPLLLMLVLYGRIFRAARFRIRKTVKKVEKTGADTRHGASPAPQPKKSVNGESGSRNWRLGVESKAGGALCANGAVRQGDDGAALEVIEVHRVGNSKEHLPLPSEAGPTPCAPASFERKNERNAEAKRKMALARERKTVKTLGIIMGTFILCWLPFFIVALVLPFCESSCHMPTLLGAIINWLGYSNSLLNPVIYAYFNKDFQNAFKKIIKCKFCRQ
assayProtocol: 5-HT1A receptor stimulation test, [^35S]GTPγS binding (Test Example 3)
Format: biochemical
conditions: 10^-5 M test substance; membranes of human 5-HT1A/CHO cells; increase in [^35S]GTPγS binding caused by 10 μM 5-HT taken as 100%
observationType: 5-HT1A receptor stimulating activity (%)

> print(dat)
                                   compound  testresult
1  CCN(CC)[C@H]1CC[C@@H](CCCN2CCC(Cc3cc(OC)ccc3Br)CC2)CC1.Cl.Cl [Example 54]          16
2  Cl.Cl.Clc1ccc(Br)c(CC2CCN(CC3CCc4ccccc4N3)CC2)c1 (stereo not drawn) [Example 67]          74
3  COc1ccc(Br)c(CC2CCN(CC[C@H]3CC[C@H](NS(=O)(=O)N(C)C)CC3)CC2)c1.Cl [Example 47]          37
